Here, molecules appear alongside IC50 reported for Histone deacetylase 1 (Homo sapiens) in the literature.
Readout: IC50 (nM)

O=C(CCCCCCn1cc(-c2ccc(Nc3c4ccccc4nc4ccccc34)cc2)nn1)NO	3.9
COc1ncc(-c2cc(OCCCc3ccc(C(=O)Nc4ccccc4N)cc3)c3ncnc(C)c3c2)cc1NS(=O)(=O)c1ccc(F)cc1F	28
O=C(NO)c1coc(-c2cccs2)n1	36500

[1] Cn1cccc1C(=O)N1CCn2cc(C(=O)NO)cc2C1
[2] CC(=O)Nc1ccc(-c2ccnc(Nc3cccc(NC(=O)CCCCCCC(=O)NO)c3)n2)cc1
[3] COc1ccc(N(Cc2noc(-c3cccc(C)c3)n2)C(=O)CCCCCC(=O)NO)cc1
Could you please sort these 3 entries by IC50 from high to low? Would you mind listing the labels in the order requested?
1, 2, 3

[I] CCN1CCN(Cc2cnc(-c3ccc(C(=O)Nc4ccccc4N)cc3)c(C#N)c2)CC1
[II] Cc1cc(-c2nc3sc4c(c3c(=O)[nH]2)CCN(C)C4)cc(C)c1OCCCCCC(=O)NO
[III] CC(=O)Nc1ccc(-c2ccnc(Nc3ccc(NC(=O)CCCCC(=O)NO)cc3)n2)cc1
[IV] CCCNc1ccc2c3c(cccc13)C(=O)N(CCCC(=O)NO)C2=O
Arrange the 4 molecules from largest to smallest IC50. Could you list the labels in the order requested?
IV, III, II, I

[A] Cc1cccc(-c2noc(-c3ccc(C(=O)C(F)(F)F)s3)n2)c1
[B] COc1cc(OC)cc(N(CCNC(C)C)c2ccc3ncc(-c4cnn(CCC(=O)Nc5ccc(C(=O)NO)cc5)c4)nc3c2)c1
[C] CCCCC(CCCC(=O)NO)CCC(=O)Nc1ccccc1 (stereo not given)
[D] CC(C)C[C@H](NC(=O)OC(C)(C)C)C(=O)N1CC2(C[C@H]1C(=O)NCCCCCC(=O)NO)SCCS2
Please give the order of these molecules when sorted by IC50, largest value leading. Please respond with the labels ordered as the question requires.
A, C, D, B
(A: 6540 nM, C: 1100 nM, D: 680 nM, B: 5.7 nM)

[P] O=C(NO)c1ccc(/C=C/c2cncc(-c3ccccc3O)c2)cc1
[Q] COc1ccc(N(C)c2nc(C)nc3ccccc23)cc1OCCCCCC(=O)NO
// compare measured IC50, left P , right Q , return larger Let me know the label of the one you choose.
P

[1] COc1cc2nc(-c3ccccc3)cc(NCC3CCN(c4ncc(C(=O)NO)cn4)CC3)c2cc1OC
[2] O=C1/C(=C/c2ccc(O)c(O)c2)Oc2cc(O)cc(O)c21
[3] Cn1c([C@@H](Cc2ccccc2)NCc2ccccc2)nc2cc(C(=O)NO)ccc21
Please order the records by their reported IC50, lowest number first. Give the labels in the order specified.
1, 3, 2
